Assay: Stability in liver microsome, human
Format: in vitro ADME
Conditions: liver microsomes; human liver microsome 0.1 mg/mL, compound 1 μM, NADPH 2 mM
experimental-endpoint: CLint scaled at 1 μM (mL/min/kg)

COC(=O)C1=C(CN2CCO[C@H](CCC(=O)O)C2)NC(c2nccs2)=N[C@H]1c1ccc(Cl)cc1Cl
17.2
CCOC(=O)C1=C(CN2CCO[C@H](CCC(=O)O)C2)NC(c2nccs2)=N[C@H]1c1ccc(F)cc1Br
17.5
COC(=O)C1=C(CN2CCO[C@H](CCC(=O)O)C2)NC(c2nccs2)=N[C@H]1c1ccc(F)cc1Br
6.93
COC(=O)C1=C(CN2CCO[C@H](CCC(=O)O)C2)NC(c2nccs2)=N[C@H]1c1ccc(F)cc1Cl
3.72
CCOC(=O)C1=C(CN2CCO[C@H](CCC(=O)O)C2)NC(c2nccs2)=N[C@H]1c1ccc(F)cc1Cl
11.4
CCOC(=O)C1=C(CN2CCO[C@H](CCC(=O)O)C2)NC(c2nccs2)=N[C@H]1c1ccc(Cl)cc1Cl
18.6

----------
Assay: Stability in liver microsome, human
Assay type: in vitro ADME
Conditions: liver microsomes; human liver microsome 0.1 mg/mL, compound 1 μM, NADPH 2 mM
experimental-endpoint: half-life at 1 μM (min)

COC(=O)C1=C(CN2CCO[C@H](CCC(=O)O)C2)NC(c2nccs2)=N[C@H]1c1ccc(F)cc1Br [Example 11]
251
COC(=O)C1=C(CN2CCO[C@H](CCC(=O)O)C2)NC(c2nccs2)=N[C@H]1c1ccc(F)cc1Cl [Example 10]
467
CCOC(=O)C1=C(CN2CCO[C@H](CCC(=O)O)C2)NC(c2nccs2)=N[C@H]1c1ccc(Cl)cc1Cl [Example 12]
93.5
CCOC(=O)C1=C(CN2CCO[C@H](CCC(=O)O)C2)NC(c2nccs2)=N[C@H]1c1ccc(F)cc1Br [Example 2]
99.4
COC(=O)C1=C(CN2CCO[C@H](CCC(=O)O)C2)NC(c2nccs2)=N[C@H]1c1ccc(Cl)cc1Cl [Example 13]
101
CCOC(=O)C1=C(CN2CCO[C@H](CCC(=O)O)C2)NC(c2nccs2)=N[C@H]1c1ccc(F)cc1Cl [Example 9]
152

----------
AUC(0-t) values by entry
Assay: PK of test compounds in beagle
Assay type: in vivo, beagle dog
Settings: dog, plasma, po, 2.5 mg/kg, po, 2.5 mg/kg, AUC in 0-24 hours, read-out: AUClast
experimental-endpoint: AUC(0-t) (ng·h/mL)

COC(=O)C1=C(CN2CCO[C@H](CCC(=O)O)C2)NC(c2nccs2)=N[C@H]1c1ccc(F)cc1Cl
27400
COC(=O)C1=C(CN2CCO[C@H](CCC(=O)O)C2)NC(c2nccs2)=N[C@H]1c1ccc(F)cc1Br
23700
COC(=O)C1=C(CN2CCO[C@H](CCC(=O)O)C2)NC(c2nccs2)=N[C@H]1c1ccc(Cl)cc1Cl
32200
CCOC(=O)C1=C(CN2CCO[C@H](CCC(=O)O)C2)NC(c2nccs2)=N[C@H]1c1ccc(F)cc1Cl
24300
CCOC(=O)C1=C(CN2CCO[C@H](CCC(=O)O)C2)NC(c2nccs2)=N[C@H]1c1ccc(Cl)cc1Cl
15000

----------
Assay: Stability in liver microsome, monkey
Assay type: in vitro ADME
Conditions: liver microsomes; monkey liver microsome 0.1 mg/mL, compound 1 μM, NADPH 2 mM
experimental-endpoint: CLint scaled at 1 μM (mL/min/kg)

CCOC(=O)C1=C(CN2CCO[C@H](CCC(=O)O)C2)NC(c2nccs2)=N[C@H]1c1ccc(F)cc1Br
107
CCOC(=O)C1=C(CN2CCO[C@H](CCC(=O)O)C2)NC(c2nccs2)=N[C@H]1c1ccc(F)cc1Cl
75.6
CCOC(=O)C1=C(CN2CCO[C@H](CCC(=O)O)C2)NC(c2nccs2)=N[C@H]1c1ccc(Cl)cc1Cl
122
COC(=O)C1=C(CN2CCO[C@H](CCC(=O)O)C2)NC(c2nccs2)=N[C@H]1c1ccc(Cl)cc1Cl
36
COC(=O)C1=C(CN2CCO[C@H](CCC(=O)O)C2)NC(c2nccs2)=N[C@H]1c1ccc(F)cc1Cl
15.4
COC(=O)C1=C(CN2CCO[C@H](CCC(=O)O)C2)NC(c2nccs2)=N[C@H]1c1ccc(F)cc1Br
14.4

----------
Test: PK of test compounds in beagle
Assay type: in vivo, beagle dog
Conditions: dog, plasma, iv, 1 mg/kg
experimental-endpoint: half-life

COC(=O)C1=C(CN2CCO[C@H](CCC(=O)O)C2)NC(c2nccs2)=N[C@H]1c1ccc(F)cc1Cl [Example 10]
5.16 h
CCOC(=O)C1=C(CN2CCO[C@H](CCC(=O)O)C2)NC(c2nccs2)=N[C@H]1c1ccc(F)cc1Cl [Example 9]
6.59 h
COC(=O)C1=C(CN2CCO[C@H](CCC(=O)O)C2)NC(c2nccs2)=N[C@H]1c1ccc(F)cc1Br [Example 11]
4.99 h
